assay: total protein half-life in vivo (active degradation + dilution); higher = more stable protein; details: E. coli NCM3722 delta-clpP delta-lon delta-hslV; growth: N-lim chemostat; doubling time 6 h
As shown below, each of these sequences has a reported total protein half-life in vivo value.
endpointName: total protein half-life in vivo (h)

1. MSRFIPIELHHASRLLNHGPTVLITSFDEQSQRRNIMAAAWSMPVEFEPPRVAIVVDKSTWTRELIEHNGKFGIVIPGVAATNWTWAVGSVSGRDEDKFNCYGIPVVRGPVFGLPLVEEKCLAWMECRLLPATSAQEEYDTLFGEVVSAAADARVFVEGRWQFDDDKLNTLHHLGAGTFVTSGKRVTAG : 5.07
2. MNEQSQAKSPEALRAMVAGTLANFQHPTLKHNLTTLKALHHVAWMDDTLHVELVMPFVWHSAFEELKEQCSAELLRITGAKAIDWKLSHNIATLKRVKNQPGINGVKNIIAVSSGKGGVGKSSTAVNLALALAAEGAKVGILDADIYGPSIPTMLGAENQRPTSPDGTHMAPIMSHGLATNSIGYLVTDDNAMVWRGPMASKALMQMLQETLWPDLDYLVLDMPPGTGDIQLTLAQNIPVTGAVVVTTPQDIALIDAKKGIVMFEKVEVPVLGIVENMSVHICSNCGHHEPIFGTGGAEKLAEKYHTQLLGQMPLHISLREDLDKGTPTVISRPESEFTAIYRQLADRVAAQLYWQGEVIPGEISFRAV [P0AF08] : 5.1
3. MKRKVLLIPLIIFLAIAAALLWQLARNAEGDDPTNLESALIGKPVPKFRLESLDNPGQFYQADVLTQGKPVLLNVWATWCPTCRAEHQYLNQLSAQGIRVVGMNYKDDRQKAISWLKELGNPYALSLFDGDGMLGLDLGVYGAPETFLIDGNGIIRYRHAGDLNPRVWEEEIKPLWEKYSKEAAQ [P0AA86] : 6.39

====

experiment: total protein half-life in vivo (active degradation + dilution); higher = more stable protein; details: E. coli NCM3722 delta-clpP delta-lon delta-hslV; growth: N-lim chemostat; doubling time 6 h
endpointName: total protein half-life in vivo (h)

1) MLDQVCQLARNAGDAIMQVYDGTKPMDVVSKADNSPVTAADIAAHTVIMDGLRTLTPDVPVLSEEDPPGWEVRQHWQRYWLVDPLDGTKEFIKRNGEFTVNIALIDHGKPILGVVYAPVMNVMYSAAEGKAWKEECGVRKQIQVRDARPPLVVISRSHADAELKEYLQQLGEHQTTSIGSSLKFCLVAEGQAQLYPRFGPTNIWDTAAGHAVAAAAGAHVHDWQGKPLDYTPRESFLNPGFRVSIY : 4.77
2) MTSLYLASGSPRRQELLAQLGVTFERIVTGIEEQRQPQESAQQYVVRLAREKARAGVAQTAKDLPVLGADTIVILNGEVLEKPRDAEHAAQMLRKLSGQTHQVMTAVALADSQHILDCLVVTDVTFRTLTDEDIAGYVASDEPLDKAGAYGIQGLGGCFVRKINGSYHAVVGLPLVETYELLSNFNALREKRDKHDG : 4.55
3) MSVIKMTDLDLAGKRVFIRADLNVPVKDGKVTSDARIRASLPTIELALKQGAKVMVTSHLGRPTEGEYNEEFSLLPVVNYLKDKLSNPVRLVKDYLDGVDVAEGELVVLENVRFNKGEKKDDETLSKKYAALCDVFVMDAFGTAHRAQASTHGIGKFADVACAGPLLAAELDALGKALKEPARPMVAIVGGSKVSTKLTVLDSLSKIADQLIVGGGIANTFIAAQGHDVGKSLYEADLVDEAKRLLTTCNIPVPSDVRVATEFSETAPATLKSVNDVKADEQILDIGDASAQELAEILKNAKTILWNGPVGVFEFPNFRKGTEIVANAIADSEAFSIAGGGDTLAAIDLFGIADKISYISTGGGAFLEFVEGKVLPAVAMLEERAKK [P0A799] : 5.45
4) MSEIVIRHAETRDYEAIRQIHAQPEVYCNTLQVPHPSDHMWQERLADRPGIKQLVACIDGDVVGHLTIDVQQRPRRSHVADFGICVDSRWKNRGVASALMREMIEMCDNWLRVDRIELTVFVDNAPAIKVYKKYGFEIEGTGKKYALRNGEYVDAYYMARVK : 4.84
